system: P388 leukemia ip, CD2F1 mice, survival T/C; experiment: NCI In Vivo Anticancer Drug Screen. Data for tumor model P388 Leukemia (intraperitoneal) in CD2F1 (CDF1) mice; settings: endpoint: median survival time; dose: 200.0 mg/kg/injection; schedule: Q01DX009 (ip); vehicle: saline with Tween-80
Inconclusive results and toxic doses are left out. Rule for the calls: active = survival T/C of 150% or more; inactive = T/C below 125% in these data.
The categories you may choose from are 1.0 = active, 0.0 = inactive

Below, 4 compounds whose answers are already recorded.
# COMPOUND, LABEL_VALUE
measured = [
    ("c1ccc2n[nH]nc2c1", 0.0),
    ("S=C1Nc2ccccc2C2CC=NN12 (stereo not drawn)", 0.0),
    ("CC1(C)CCCc2c(-c3ccccc3)cc3c4[nH]c5ccccc5c4cc[n+]3c21", 0.0),
    ("O=C(O)c1ccccc1C(=O)n1cnc2ccccc21", 0.0),
]

Query :: Short answer needed: outcome of this test for COc1cc(Cl)nc(OC)n1 ?
Result :: 0.0

Query :: Test call, this compound: O=CC=O
Result :: 1.0

Query :: Query: recorded result category for CCOC(=O)C1(Br)CCCCC1 in this test
Result :: 0.0

Query :: Test call, this compound: Cc1ccc(S(=O)(=O)OCCN2CC2)cc1
Result :: 0.0

Query :: Each compound tested received a call. Report the one for CC(=O)OC1CCCCC1C (stereo not drawn) .
Result :: 0.0

Query :: Which outcome did this test record for the compound CN(CCC#N)c1ccc(/C=C(\C#N)C(N)=O)cc1 ?
Result :: 0.0

Query :: Recorded test outcome, item CCOC(=O)c1ccc(N(CCNc2cnc(NC(C)=O)[nH]c2=O)C(C)=O)cc1
Result :: 0.0

Query :: Short answer needed: outcome of this test for COc1cc2ccc(CC(=S)N3CCOCC3)cc2cc1OC ?
Result :: 0.0

Query :: Test call, this compound: CC(=O)OCC(OC(C)=O)C(OC(C)=O)C(OC(C)=O)C(C#N)OC(C)=O (stereo not drawn)
Result :: 0.0

* * *

System: P388 leukemia ip, CD2F1 mice, survival T/C
Test: NCI In Vivo Anticancer Drug Screen. Data for tumor model P388 Leukemia (intraperitoneal) in CD2F1 (CDF1) mice
Details: endpoint: median survival time; dose: 25.0 mg/kg/injection; schedule: Q04DX003 (ip); vehicle: saline; higher = longer survival
Procedure: The antitumor activity of compounds was measured in mice bearing transplantable tumors. Survival or tumor size were measured and the results are expressed as the measurement made in the treated group (T) divided by the measurement made in the vehicle treated control group (C). The tumor model used in this assay is P388 Leukemia (intraperitoneal) in CD2F1 (CDF1) mice
Toxic doses and inconclusive results are not listed.
REPORTED_PROPERTY: T/C

Query :: Tell me T/C reported for O=C(O)c1ccccc1Nc1cccc([N+](=O)[O-])c1
Result :: 99 % of control

Query :: Complete the entry with T/C for CO/C=C1\CC(=O)N(c2cccc([N+](=O)[O-])c2)C1=O
Result :: 97 % of control

Query :: Check the records and state T/C for Cc1ccccc1C(=O)Nc1ccccc1-c1ccccc1N
Result :: 95 % of control

Query :: Recall and state the measured T/C for CCCC(=O)OCc1ccc(Cl)c(Cl)c1 .
Result :: 100 % of control

Query :: Dear colleague, please send me the reported T/C for CS(=O)(=O)OCCN1C(=O)CNC1=O when you can.
Result :: 106 % of control
